The reported measurements were obtained from patent US20040166544A1.

The following binders are shown together with reported pKd values.
# Target under test: T1, biotinylated c-Met-Fc (R&D Systems, #358-MT-100/CF, 5.1 biotin per c-Met molecule) (human, UniProt P08581 25-932, biotinylated, 5.1 biotin per c-Met molecule (Pierce #21335))
# T1 construct: extracellular domain; Captured on a streptavidin (SA) chip for the BIAcore study of the IgGs; Fc part of the bought chimera not given
# T1 sequence (P08581 25-932): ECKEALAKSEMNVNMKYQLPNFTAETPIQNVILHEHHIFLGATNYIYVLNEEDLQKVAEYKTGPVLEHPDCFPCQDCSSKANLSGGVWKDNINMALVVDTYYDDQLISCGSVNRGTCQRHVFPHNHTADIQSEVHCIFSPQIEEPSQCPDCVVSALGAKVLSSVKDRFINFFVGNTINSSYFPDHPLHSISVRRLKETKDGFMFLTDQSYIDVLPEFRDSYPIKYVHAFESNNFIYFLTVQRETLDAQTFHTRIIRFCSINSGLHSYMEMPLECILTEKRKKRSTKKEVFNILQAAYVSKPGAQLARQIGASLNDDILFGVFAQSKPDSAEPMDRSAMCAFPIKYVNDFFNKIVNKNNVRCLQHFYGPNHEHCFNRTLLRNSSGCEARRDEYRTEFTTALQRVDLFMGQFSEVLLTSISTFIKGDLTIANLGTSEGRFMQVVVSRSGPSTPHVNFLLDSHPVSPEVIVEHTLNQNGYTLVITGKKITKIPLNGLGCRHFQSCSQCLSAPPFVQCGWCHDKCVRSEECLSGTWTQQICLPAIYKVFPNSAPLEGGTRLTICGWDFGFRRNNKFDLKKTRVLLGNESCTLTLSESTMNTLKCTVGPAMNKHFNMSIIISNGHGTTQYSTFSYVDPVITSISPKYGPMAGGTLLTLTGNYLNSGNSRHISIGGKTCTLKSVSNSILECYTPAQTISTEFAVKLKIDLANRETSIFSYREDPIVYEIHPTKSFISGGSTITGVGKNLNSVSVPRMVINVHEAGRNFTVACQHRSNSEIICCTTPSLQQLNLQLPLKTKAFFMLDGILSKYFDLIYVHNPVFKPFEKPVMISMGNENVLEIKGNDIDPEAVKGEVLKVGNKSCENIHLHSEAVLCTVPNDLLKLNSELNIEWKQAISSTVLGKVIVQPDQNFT
# Run description: SPR (BIAcore), biotinylated c-Met-Fc captured on streptavidin chip, IgG as analyte, bivalent model
Remember, pKd is on a log scale: it is -log10 of the molar concentration.

Worked cases, answers included:
c-Met IgG antibody 12136 (antibody, V domains shown, IgG of scFv PGIA-4-A8; also called 12136 IgG; IgG of scFv PGIA-04-A8 (PGIA-4-A8)) VH: QVQLQESGPGLVKPSETLSLTCNVSGGSIRNYFWSWIRQPPGQGLEYIGYIYYSGTTDYNPSLKGRVTISLDTSKTQFSLKLNSVTAADTAFYYCVRGPNKYAFDPWGQGTLVTVSS VL: SYELTQPPSVSVSPGQTASITCSGDKLGDKFASWYQQKAGQSPVLVIYRDTKRPSGIPERFSGSNSGNTATLTISGTQAMDEADYYCQAWDSSTAVFGTGTKVTVLG    9.10
c-Met IgG antibody 12123 (antibody, V domains shown, IgG of scFv PGIA-3-B2; The VL reverse cloning primer RH62 codes ...TVLG whereas the scFv entry ends ...TVLS; also called 12123 IgG; IgG of scFv PGIA-03-B2 (PGIA-3-B2)) VH: QVQLQESGPGLVKPSATLSLTCAVSGGSISSNHWWSWVRQSPGKGLEWIGEIYTYGGANYNPSLKSRVDISMDKSKNQFSLHLSSVTAADTAVYYCGRHLTGYDCFDIWGQGTLVTVSS VL: QAVLTQPSSVSGAPGQRVTISCTGSSSNIGAGYDVHWYQQLPGTAPKLLIYGNSNRPSGVPDRFSGSKSGTSASLAITGLQAEDEADYYCQSYDSSLSGVFGTGTQLTVLS    8.01
c-Met IgG antibody 12075 (antibody, V domains shown, IgG of scFv PGIA-3-A11; also called 12075 IgG; IgG of scFv PGIA-03-A11 (PGIA-3-A11)) VH: QVQLVQSGPEVKKPGASVEVSCKASGYTFTGDYMHWVRQAPGQGPEWMGWINPQTGVTKYAQKFQGRVTMARDTSINTAYMELRGLRSDDTAVYYCVREDHNYDLWSAYNGLDVWGQGTLVTVSS VL: QSVLTQPPSVSAAPGQKVTISCSGSSSNIGNNHVSWYQQLAGTAPKLLIFDNDKRPSGIPDRFSGSKSGTSATLGITGLQTGDEADYYCGTWDKSPTDIYVFGSGTKLTVLG    6.26

Using the record for c-Met IgG antibody 11994 (antibody, V domains shown, IgG of scFv PGIA-3-A9; also called 11994 IgG; 11994-50) VH: QVQLQESGPGLVKPSGTLSLTCAVSGGSISTSDWWSWVRRPPGKGLEWIGEIYHSGSTNYHPSLKSRVTISLDKSKNQFSLKLSSVTAADTAVYYCAREGGHSGSYPLDYWGKGTLVTVSS VL: NFMLTQPHSVSESPGKTVTISCTRSSGSIASNYVQWYQQRPGSSPTTVIYEDNQRPSGVPDRFSGSIDSSSNSASLTISGLKTEDEADYYCQSYDSSNQGVVFGGGTKLTVLG , report its pKd.
8.08

Using the record for c-Met IgG antibody 12119 (antibody, V domains shown, IgG of scFv PGIA-5-A1; also called 12119 IgG; IgG of scFv PGIA-05-A1 (PGIA-5-A1)) VH: QLQLQESGPGLVKPSGTLSLTCAVSGGSISTSDWWSWVRRPPGKGLEWIGEIYHSGSTNYHPSLKSRVTISLDKSKNQFSLKLSSVTAADTAVYYCAREGGHSGSYPLDYWGRGTLVTVSS VL: NFMLTQPHSVSESPGKTVTISCARSSGSIASNYVQWYQQRPGSSPTTLIYEDRQRPSGVPDRFSGSIDSSSNSASLTISGLKTEDEADYYCQSYDSSDHVVFGGGTKLTVLG , report its pKd.
7.89

Using the record for c-Met IgG antibody 12133 (antibody, V domains shown, IgG of scFv PGIA-4-A5; also called 12133 IgG; IgG of scFv PGIA-04-A5 (PGIA-4-A5)) VH: QVQLQESGPGLVKPSGTLSLTCAVSGGSISTSDWWSWVRRPPGKGLEWIGEIYHSGSTNYHPSLKSRVTISLDKSKNQFSLKLSSVTAADTAVYYCAREGGHSGSYPLDYWGRGTLVTVSS VL: NFMLTQPHSVSESPGKTATISCTGSGGSIARSYVQWYQQRPGRAPSIVIYEDYQRPSGVPDRFSGSIDSSSNSASLTITGLKTDDEADYYCQSSDDNNNVVFGGGTKVTVLG , report its pKd.
8.22
